Sourced from patent US20160002357A1

molecular target: T1, P-cadherin-ECD1-3-Fc protein (human P-cadherin-Fc) (human, UniProt P22223 108-440); test: phage scFv ELISA, coated P-cadherin-ECD1-3-Fc
T1 construct: Construct was expressed with signal peptide and pro-peptide (PACE co-transfected to process the propeptide); not shown: hinge and CH2 and CH3 domains of human IgG1
T1 sequence (P22223 108-440): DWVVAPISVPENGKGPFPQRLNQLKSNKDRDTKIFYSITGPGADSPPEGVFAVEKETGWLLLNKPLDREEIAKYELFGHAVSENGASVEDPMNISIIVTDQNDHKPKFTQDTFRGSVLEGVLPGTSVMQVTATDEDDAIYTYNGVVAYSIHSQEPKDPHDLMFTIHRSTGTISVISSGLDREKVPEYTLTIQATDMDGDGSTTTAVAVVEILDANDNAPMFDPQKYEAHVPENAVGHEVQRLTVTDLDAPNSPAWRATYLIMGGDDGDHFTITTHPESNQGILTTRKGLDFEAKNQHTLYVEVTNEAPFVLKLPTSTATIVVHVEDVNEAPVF

{"BINDER": "anti-P-cadherin scFv 153 alanine-mutant H3.1-Ala (scFv, V domains shown, scFv on phage) VH: EVQLVQSGAEVKKPGASVKVSCKASGYTFTSYGISWVRQAPGQGLEWMGWISAYNGNTNYAQKLQGRVTMTTDTSTSTAYMELRSLRSDDTAVYYCATADTANAFGIWGQGTMVTVSS VL: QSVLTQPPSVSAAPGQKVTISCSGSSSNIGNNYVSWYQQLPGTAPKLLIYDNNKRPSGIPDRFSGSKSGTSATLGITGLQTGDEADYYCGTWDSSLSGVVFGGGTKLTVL", "Z Score": -1.8}
{"BINDER": "anti-P-cadherin scFv 153 alanine-mutant H1.6-Ala (scFv, V domains shown, scFv on phage) VH: EVQLVQSGAEVKKPGASVKVSCKASGYTFTAYGISWVRQAPGQGLEWMGWISAYNGNTNYAQKLQGRVTMTTDTSTSTAYMELRSLRSDDTAVYYCATIDTANAFGIWGQGTMVTVSS VL: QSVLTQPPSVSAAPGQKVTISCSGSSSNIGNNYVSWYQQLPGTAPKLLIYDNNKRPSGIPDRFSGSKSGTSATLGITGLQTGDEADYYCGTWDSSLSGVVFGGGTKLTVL", "Z Score": 1}
{"BINDER": "anti-P-cadherin scFv 153 alanine-mutant H3.2-Ala (scFv, V domains shown, scFv on phage) VH: EVQLVQSGAEVKKPGASVKVSCKASGYTFTSYGISWVRQAPGQGLEWMGWISAYNGNTNYAQKLQGRVTMTTDTSTSTAYMELRSLRSDDTAVYYCATIATANAFGIWGQGTMVTVSS VL: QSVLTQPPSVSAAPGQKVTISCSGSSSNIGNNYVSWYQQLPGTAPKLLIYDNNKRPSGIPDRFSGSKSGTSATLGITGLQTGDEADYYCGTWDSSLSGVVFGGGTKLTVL", "Z Score": 1.4}
{"BINDER": "anti-P-cadherin scFv 153 alanine-mutant H2.17-Ala (scFv, V domains shown, scFv on phage) VH: EVQLVQSGAEVKKPGASVKVSCKASGYTFTSYGISWVRQAPGQGLEWMGWISAYNGNTNYAQKLQARVTMTTDTSTSTAYMELRSLRSDDTAVYYCATIDTANAFGIWGQGTMVTVSS VL: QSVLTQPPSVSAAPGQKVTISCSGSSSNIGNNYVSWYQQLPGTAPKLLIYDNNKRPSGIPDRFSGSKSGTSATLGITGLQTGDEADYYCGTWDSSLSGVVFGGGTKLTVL", "Z Score": 1.3}
{"BINDER": "anti-P-cadherin scFv 153 (parental clone 153), displayed on phage (scFv, V domains shown, scFv expressed on the surface of phage) VH: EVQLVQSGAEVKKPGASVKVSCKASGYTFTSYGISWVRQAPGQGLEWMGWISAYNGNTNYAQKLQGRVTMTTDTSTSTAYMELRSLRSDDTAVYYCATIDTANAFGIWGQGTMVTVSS VL: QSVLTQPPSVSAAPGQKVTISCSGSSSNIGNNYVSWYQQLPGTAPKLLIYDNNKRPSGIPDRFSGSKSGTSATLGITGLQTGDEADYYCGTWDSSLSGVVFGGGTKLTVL", "Z Score": 0}
{"BINDER": "anti-P-cadherin scFv 153 alanine-mutant H2.15-Ala (scFv, V domains shown, scFv on phage) VH: EVQLVQSGAEVKKPGASVKVSCKASGYTFTSYGISWVRQAPGQGLEWMGWISAYNGNTNYAQKAQGRVTMTTDTSTSTAYMELRSLRSDDTAVYYCATIDTANAFGIWGQGTMVTVSS VL: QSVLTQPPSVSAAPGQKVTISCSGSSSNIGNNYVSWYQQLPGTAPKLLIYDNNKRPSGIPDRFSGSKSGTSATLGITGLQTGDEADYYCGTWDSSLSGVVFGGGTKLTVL", "Z Score": 0}
{"BINDER": "anti-P-cadherin scFv 153 alanine-mutant H3.3-Ala (scFv, V domains shown, scFv on phage) VH: EVQLVQSGAEVKKPGASVKVSCKASGYTFTSYGISWVRQAPGQGLEWMGWISAYNGNTNYAQKLQGRVTMTTDTSTSTAYMELRSLRSDDTAVYYCATIDAANAFGIWGQGTMVTVSS VL: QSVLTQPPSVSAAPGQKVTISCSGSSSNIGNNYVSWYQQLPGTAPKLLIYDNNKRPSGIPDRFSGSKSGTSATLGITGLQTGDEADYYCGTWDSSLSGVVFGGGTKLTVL", "Z Score": 1.5}
{"BINDER": "anti-P-cadherin scFv 153 alanine-mutant H2.7-Ala (scFv, V domains shown, scFv on phage) VH: EVQLVQSGAEVKKPGASVKVSCKASGYTFTSYGISWVRQAPGQGLEWMGWISAYNANTNYAQKLQGRVTMTTDTSTSTAYMELRSLRSDDTAVYYCATIDTANAFGIWGQGTMVTVSS VL: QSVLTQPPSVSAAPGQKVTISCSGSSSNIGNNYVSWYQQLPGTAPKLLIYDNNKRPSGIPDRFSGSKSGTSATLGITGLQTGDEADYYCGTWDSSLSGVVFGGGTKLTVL", "Z Score": 0.3}
{"BINDER": "anti-P-cadherin scFv 153 alanine-mutant H2.14-Ala (scFv, V domains shown, scFv on phage) VH: EVQLVQSGAEVKKPGASVKVSCKASGYTFTSYGISWVRQAPGQGLEWMGWISAYNGNTNYAQALQGRVTMTTDTSTSTAYMELRSLRSDDTAVYYCATIDTANAFGIWGQGTMVTVSS VL: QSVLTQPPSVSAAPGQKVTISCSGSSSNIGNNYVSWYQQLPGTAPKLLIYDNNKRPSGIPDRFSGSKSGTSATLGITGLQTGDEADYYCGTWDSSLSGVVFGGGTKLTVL", "Z Score": 0.4}
{"BINDER": "anti-P-cadherin scFv 153 alanine-mutant H2.9-Ala (scFv, V domains shown, scFv on phage) VH: EVQLVQSGAEVKKPGASVKVSCKASGYTFTSYGISWVRQAPGQGLEWMGWISAYNGNANYAQKLQGRVTMTTDTSTSTAYMELRSLRSDDTAVYYCATIDTANAFGIWGQGTMVTVSS VL: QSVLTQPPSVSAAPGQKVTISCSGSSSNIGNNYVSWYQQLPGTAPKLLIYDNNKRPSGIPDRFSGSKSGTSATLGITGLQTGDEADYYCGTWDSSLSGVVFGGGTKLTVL", "Z Score": 1.1}
